ASSAY TARGET: PTHR1 receptor
Sequence (P25961 whole entry): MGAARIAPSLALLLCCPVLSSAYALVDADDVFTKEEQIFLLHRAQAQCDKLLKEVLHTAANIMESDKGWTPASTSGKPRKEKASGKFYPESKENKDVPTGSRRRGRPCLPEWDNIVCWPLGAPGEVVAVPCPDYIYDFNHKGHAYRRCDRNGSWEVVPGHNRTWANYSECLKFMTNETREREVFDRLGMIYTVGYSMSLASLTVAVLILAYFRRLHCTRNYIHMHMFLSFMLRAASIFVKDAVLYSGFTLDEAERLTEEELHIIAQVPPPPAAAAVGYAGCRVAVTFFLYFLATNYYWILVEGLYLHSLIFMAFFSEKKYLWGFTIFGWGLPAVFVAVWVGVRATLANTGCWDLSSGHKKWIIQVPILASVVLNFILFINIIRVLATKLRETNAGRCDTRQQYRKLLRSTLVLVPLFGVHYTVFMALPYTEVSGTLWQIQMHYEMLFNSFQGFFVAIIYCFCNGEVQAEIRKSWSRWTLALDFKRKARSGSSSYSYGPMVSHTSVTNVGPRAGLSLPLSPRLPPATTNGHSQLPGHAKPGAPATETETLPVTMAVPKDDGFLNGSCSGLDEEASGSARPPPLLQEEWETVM
* marks the point of attachment. Palmitoyl = CCCCCCCCCCCCCCCC(=O)*
MEASURED PROPERTY: Fold Shift of EC50 (fold)

# BINDER, UNIT STRING, MEASURED VALUE
measured = [
    ("Palmitoyl-TNAGRSDTAQQYRKLL-NH2 (SMILES CCCCCCCCCCCCCCCC(=O)N[C@H](C(=O)N[C@@H](CC(N)=O)C(=O)N[C@@H](C)C(=O)NCC(=O)N[C@@H](CCCNC(=N)N)C(=O)N[C@@H](CO)C(=O)N[C@@H](CC(=O)O)C(=O)N[C@H](C(=O)N[C@@H](C)C(=O)N[C@@H](CCC(N)=O)C(=O)N[C@@H](CCC(N)=O)C(=O)N[C@@H](Cc1ccc(O)cc1)C(=O)N[C@@H](CCCNC(=N)N)C(=O)N[C@@H](CCCCN)C(=O)N[C@@H](CC(C)C)C(=O)N[C@@H](CC(C)C)C(N)=O)[C@@H](C)O)[C@@H](C)O) [Compound 78]", "fold", 12.7),
]

Every entry's value here was drawn from patent US20110294738A1.
